Molecular target: cloned human 5-HT1A receptors (Homo sapiens)
Construct: expressed in transfected cells
Sequence (P08908 1-422): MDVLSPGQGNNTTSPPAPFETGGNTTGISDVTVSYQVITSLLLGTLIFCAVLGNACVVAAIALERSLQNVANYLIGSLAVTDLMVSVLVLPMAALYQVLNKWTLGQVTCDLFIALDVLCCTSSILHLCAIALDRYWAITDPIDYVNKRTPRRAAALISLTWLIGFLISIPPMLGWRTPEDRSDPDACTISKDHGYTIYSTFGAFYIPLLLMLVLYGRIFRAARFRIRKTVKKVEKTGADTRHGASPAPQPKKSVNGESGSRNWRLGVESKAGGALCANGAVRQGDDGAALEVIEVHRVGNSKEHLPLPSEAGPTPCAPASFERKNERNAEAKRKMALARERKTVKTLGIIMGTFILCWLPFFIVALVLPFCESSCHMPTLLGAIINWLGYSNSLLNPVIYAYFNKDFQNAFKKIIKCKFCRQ
Experiment: 35S-GTPγS binding assay, 5-HT1A function
Format: biochemical
Conditions: maximum stimulatory effect, in brackets after EC50; read-out: 5-HT1A Function GTPγS (Emax)
METRIC: Emax (%)

Field: example entries. Status: answers known.
COMPOUND | TARGET_DESC | METRIC | UNIT_ABBREV | NUMBER
CCCN(CCCc1c[nH]c2c(Cl)cccc12)C1COc2c(F)ccc(C(N)=O)c2C1 (centres unmarked) [Compound 113] | cloned human 5-HT1A receptors (Homo sapiens) | Emax | % | 56
CCNC(=O)c1cccc2c1CC(N(CCCc1c[nH]c3c(F)cc(F)cc13)C1CCC1)CO2 (centres unmarked) [Compound 139] | cloned human 5-HT1A receptors (Homo sapiens) | Emax | % | 81
CCN(CCCc1c[nH]c2c(OC)cccc12)C1COc2c(F)ccc(C(N)=O)c2C1 (centres unmarked) [Compound 101] | cloned human 5-HT1A receptors (Homo sapiens) | Emax | % | 99

1 = O=C(NC1CCC1)c1cccc2c1CC(N(CCCc1c[nH]c3c(F)cc(F)cc13)C1CCC1)CO2 (centres unmarked) [Compound 143]
2 = O=C(NC1CC1)c1cccc2c1CC(N(CCCc1c[nH]c3c(F)cc(F)cc13)C1CCC1)CO2 (centres unmarked) [Compound 142]
Would you kindly point out which of 1 and 2 has the smaller Emax figure? When you have decided, please share the label of that item.
2

---

molecular target: serotonin transporter (Rattus norvegicus, UniProt P31652); construct: displace ^3H-paroxetine from male rat cortical membranes; from tissue; host or cells: male rat cortical membranes; assay: 5-HT transporter affinity: displacement of 3H-paroxetine from male rat cortical membranes; format: binding; conditions: displacement of 3H-paroxetine; male rat cortical membranes; read-out: 5-HT Transporter Affinity Ki
Sequence (P31652 whole entry): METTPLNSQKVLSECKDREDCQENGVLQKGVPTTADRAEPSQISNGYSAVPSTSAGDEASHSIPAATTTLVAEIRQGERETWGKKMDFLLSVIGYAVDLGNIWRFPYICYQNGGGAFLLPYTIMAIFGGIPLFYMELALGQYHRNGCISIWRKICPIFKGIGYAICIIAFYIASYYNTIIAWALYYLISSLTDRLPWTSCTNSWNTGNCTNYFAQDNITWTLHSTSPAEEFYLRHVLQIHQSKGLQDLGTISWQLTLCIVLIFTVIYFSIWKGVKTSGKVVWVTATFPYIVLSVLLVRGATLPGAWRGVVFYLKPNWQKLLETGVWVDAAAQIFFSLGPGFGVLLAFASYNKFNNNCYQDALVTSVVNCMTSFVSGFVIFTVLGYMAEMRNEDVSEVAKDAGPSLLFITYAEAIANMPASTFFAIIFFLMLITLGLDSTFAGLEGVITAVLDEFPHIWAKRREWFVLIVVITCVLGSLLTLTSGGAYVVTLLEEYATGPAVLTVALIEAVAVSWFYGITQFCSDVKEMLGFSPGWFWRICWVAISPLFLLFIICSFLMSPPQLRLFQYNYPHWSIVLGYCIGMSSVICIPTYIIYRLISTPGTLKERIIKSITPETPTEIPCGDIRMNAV
METRIC: Ki (µM)
Report as a plain number; the unit µM is understood.

Solved cases (2 shown):
COMPOUND | UNIT_ABBREV | Ki
NC(=O)c1ccc(F)c2c1CC(N(CCCc1c[nH]c3ccc(F)cc13)CC1CC1)CO2 (single isomer, unassigned; (+)) [Compound 5b] | µM | 0.0037
NC(=O)c1ccc(F)c2c1CC(N(CCCCn1ccc3ccc(F)cc31)CC1CC1)CO2 (stereo not drawn) | µM | 0.0125

Please report the recorded Ki for COC(=O)c1ccc(F)c2c1CC(NCCCc1c[nH]c3ccc(F)cc13)CO2 (stereo not drawn) .
0.0109

---

molecular target: UniProt:P08908; test: cAMP accumulation assay, 5-HT1A function; conditions: cells marked EC50 (agonist)
pEC50: −log10 of the molar value.
METRIC: pEC50

Consider the reported pEC50 for these compounds:
COMPOUND | pEC50
NC(=O)c1ccc(F)c2c1CC(NCCCc1c[nH]c3ccc(F)cc13)CO2 (stereo not shown) [Compound 1] | 6.64
NC(=O)c1cccc2c1CC(N(CCCc1c[nH]c3ccc(F)cc13)C1CCC1)CO2 (single isomer, unassigned; (-)) [Compound 134a] | 8.41

P = CCN(CCCc1coc2ccccc12)C1COc2cccc(OC)c2C1 (stereo not shown)
Q = CCN(CCCc1c[nH]c2c(Cl)cccc12)C1COc2c(F)ccc(C(N)=O)c2C1 (stereo not shown)
Just tell me: smaller pEC50 value, P or Q ? API: response body contains the label of the selected item.
Q
(Q: 7.44, P: 8.02)

---

target: 5-HT1A receptor (Homo sapiens, UniProt P08908); assay: cAMP accumulation assay, 5-HT1A function; assay type: cell-based; details: cells marked IC50 (antagonist); read-out: 5-HT1A Function cAMP IC50
pIC50: −log10 of the molar value.
METRIC: pIC50

Guide cases for pIC50, answers given:
MOLECULE | pIC50
NC(=O)c1ccc(F)c2c1CC(N(CC1CCc3[nH]c4ccc(F)cc4c3C1)C1CCC1)CO2 (single isomer, unassigned; (+)) [Compound 174b] | 7.19
CCCN(C(C)CCc1c[nH]c2ccc(F)cc12)C1COc2c(F)ccc(C(N)=O)c2C1 (single isomer, unassigned) [Compound 12a] | 7.32
CCCN(CC1CCc2[nH]c3ccc(F)cc3c2C1)[C@H]1COc2c(F)ccc(C(N)=O)c2C1 (single isomer, unassigned; (+)) [Compound 177b] | 7.44

1 = NC(=O)c1ccc(F)c2c1CC(N(CCCc1c[nH]c3c(Cl)cccc13)CC1CC1)CO2 (centres unmarked) [Compound 112]
2 = COc1cccc2c(CCN(CC3CC3)C3COc4c(F)ccc(C(N)=O)c4C3)coc12 (centres unmarked) [Compound 160]
// max by pIC50 over [ 1 , 2 ] Kindly state the label of the option you pick.
1
(1: 7.25, 2: 6.02)

---

Molecular target: 5-HT1A receptor (Homo sapiens, UniProt P08908)
Sequence (P08908 1-422): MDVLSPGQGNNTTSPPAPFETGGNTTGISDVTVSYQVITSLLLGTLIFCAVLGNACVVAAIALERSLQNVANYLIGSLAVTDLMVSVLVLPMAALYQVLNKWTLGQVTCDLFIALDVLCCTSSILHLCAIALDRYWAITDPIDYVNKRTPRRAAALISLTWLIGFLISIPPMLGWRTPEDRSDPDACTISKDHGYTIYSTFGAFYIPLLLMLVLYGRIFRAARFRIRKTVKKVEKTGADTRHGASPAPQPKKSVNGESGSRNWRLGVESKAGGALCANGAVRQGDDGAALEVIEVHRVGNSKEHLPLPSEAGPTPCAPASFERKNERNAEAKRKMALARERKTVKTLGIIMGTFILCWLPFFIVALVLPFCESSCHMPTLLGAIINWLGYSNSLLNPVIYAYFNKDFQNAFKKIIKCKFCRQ
Test: cAMP accumulation assay, 5-HT1A function
Format: cell-based
Conditions: in brackets after EC50 or IC50; read-out: 5-HT1A Function cAMP (Emax)
METRIC: Emax (%)
Report only the number, with the unit % understood.

Sample records with Emax:
MOLECULE | Emax, %
NC(=O)c1cccc2c1CC(N(CCCc1c[nH]c3ccc(F)cc13)CC1CC1)CO2 (centres unmarked) | 100
CCCN(CCc1c[nH]c2ccc(F)cc12)C1COc2c(F)ccc(C(N)=O)c2C1 (centres unmarked) | 0
CCCN(CCc1c[nH]c2ccc(F)cc12)C1COc2cccc(OC)c2C1 (centres unmarked) | 99
CCCN(CCCCn1ccc2c(F)cccc21)C1COc2c(F)ccc(C(N)=O)c2C1 (centres unmarked) | 78
NC(=O)c1ccc(Cl)c2c1CC(N(CCCc1c[nH]c3ccc(F)cc13)C1CCC1)CO2 (centres unmarked) | 0
COc1cccc2c1C[C@@H](N(CCCc1c[nH]c3ccc(F)cc13)C1CCC1)CO2 | 0
NC(=O)c1ccc(F)c2c1C[C@@H](N(CCCCc1c[nH]c3ccc(F)cc13)C1CCC1)CO2 [Compound 83a] | 0

Observed Emax on 5-HT1A receptor (Homo sapiens, UniProt P08908) for NC(=O)c1ccc(F)c2c1C[C@@H](NCC1CCc3[nH]c4ccc(F)cc4c3C1)CO2 (single isomer, unassigned; (-)) [Compound 175a] , please.
0

---

Reported Emax values are given for each entry in this list.
biological target: cloned human 5-HT1A receptors (Homo sapiens, UniProt P08908); construct: expressed in transfected cells; test: 35S-GTPγS binding assay, 5-HT1A function; format: biochemical; details: maximum stimulatory effect, in brackets after EC50; read-out: 5-HT1A Function GTPγS (Emax)
State the answer as a number, implicitly in %.

Example results:
MOLECULE | UNIT_ABBREV | NUMBER
CCCN(CCCc1c[nH]c2ccc(Cl)cc12)C1COc2c(F)ccc(C(N)=O)c2C1 (stereo not drawn) [Compound 116] | % | 50
CCCN(CCCc1c[nH]c2ccc(F)cc12)[C@@H]1COc2c(F)ccc(OC)c2C1 [Compound 27] | % | 97

As a next step, examine the molecule that follows.
Record request: Emax value, item NC(=O)c1cccc2c1CC(N(CCCc1c[nH]c3ccc(F)cc13)C1CCC1)CO2 (stereo not drawn) [Compound 134]
28
